assay: Stability of compound at pH 1 assessed as half-life by 1H NMR assay; format: physicochemical; details: buffer
measured_metric: half-life (min)
State just the number; it will be interpreted in min.

stdin: Give half-life for the following molecule: Cc1cc(C)c2c(n1)CN(C(=O)CC1CN(c3ccccc3)C1)C2
stdout: 9

###

experiment: Lipophilicity, logD of compound by shake flask method; type: physicochemical; conditions: octanol/water
measured_metric: logD
Answer with the value's number alone.

stdin: Specify logD for Cc1cc(C)c2c(n1)CN(C(=O)CC1CC1)C2 and stop.
stdout: 1.84
